test name: Preliminary pharmacokinetic analyses of neratinib after oral administration
Assay type: in vivo, human
condition context: human, in vivo; 400 mg (highest dose), oral daily; read-out: Mean steady-state Cmax
quantity name: Cmax
Report as: number unit

State, in one line, measured Cmax of CCOc1cc2ncc(C#N)c(Nc3ccc(OCc4ccccn4)c(Cl)c3)c2cc1NC(=O)/C=C/CN(C)C [neratinib]
105 ng/mL

====

test name: Preliminary pharmacokinetic analyses of neratinib after oral administration
Assay type: in vivo, human
condition context: human, in vivo; 240-mg dose group, oral daily; read-out: Mean steady-state Cmax
quantity name: Cmax (ng/mL)
Reply numerically in ng/mL, unit not repeated.

State, in one line, measured Cmax of "CCOc1cc2ncc(C#N)c(Nc3ccc(OCc4ccccn4)c(Cl)c3)c2cc1NC(=O)/C=C/CN(C)C"
73.5

====

test name: Preliminary pharmacokinetic analyses of neratinib after oral administration
Format: in vivo, human
condition context: human, in vivo; 180-mg dose group, oral daily; read-out: Mean steady-state AUC
quantity name: AUC (ng·h/mL)
Reply numerically in ng·h/mL, unit not repeated.

State, in one line, measured AUC of CCOc1cc2ncc(C#N)c(Nc3ccc(OCc4ccccn4)c(Cl)c3)c2cc1NC(=O)/C=C/CN(C)C [neratinib]
975

====

test name: Preliminary pharmacokinetic analyses of neratinib after oral administration
Assay type: in vivo, human
condition context: human, in vivo; 320-mg dose group, oral daily; read-out: Mean steady-state Cmax
quantity name: Cmax (ng/mL)
Reply numerically in ng/mL, unit not repeated.

State, in one line, measured Cmax of "CCOc1cc2ncc(C#N)c(Nc3ccc(OCc4ccccn4)c(Cl)c3)c2cc1NC(=O)/C=C/CN(C)C"
90.4

====

test name: Preliminary pharmacokinetic analyses of neratinib after oral administration
Assay type: in vivo, human
condition context: human, in vivo; oral administration, day 1; read-out: mean apparent terminal half-life (t1/2)
quantity name: half-life

State, in one line, measured half-life of "CCOc1cc2ncc(C#N)c(Nc3ccc(OCc4ccccn4)c(Cl)c3)c2cc1NC(=O)/C=C/CN(C)C"
13 to 17 h

====

test name: Preliminary pharmacokinetic analyses of neratinib after oral administration
Assay type: in vivo, human
condition context: human, in vivo; 320-mg dose group, oral daily; read-out: Mean steady-state AUC
quantity name: AUC
Report as: number unit

State, in one line, measured AUC of CCOc1cc2ncc(C#N)c(Nc3ccc(OCc4ccccn4)c(Cl)c3)c2cc1NC(=O)/C=C/CN(C)C [neratinib]
1330 ng·h/mL

====

test name: Preliminary pharmacokinetic analyses of neratinib after oral administration
Assay type: in vivo, human
condition context: human, in vivo; 180-mg dose group, oral daily; read-out: Mean steady-state Cmax
Excerpt: The mean accumulation ratio was 1.2 after a 240-mg dose, indicating no significant accumulation of neratinib after repeated daily dose administration at the dose to be used in this proposed trial. The data indicated a slow distribution of neratinib with a large apparent volume of distribution (Vz/F on day 1: about 3188 to 6181 L) after oral absorption. […] There was moderate to large variability in neratinib t1/2, Cmax, and AUC; coefficients of variation (CVs) generally ranged from 8% to 90%.
quantity name: Cmax (ng/mL)
Reply numerically in ng/mL, unit not repeated.

State, in one line, measured Cmax of "CCOc1cc2ncc(C#N)c(Nc3ccc(OCc4ccccn4)c(Cl)c3)c2cc1NC(=O)/C=C/CN(C)C"
70.1
